The reader will find reported remaining at 1 h, 1 µM values listed item by item below.
assay: Metabolic stability in human liver microsomes assessed as parent compound remaining at 1 uM pretreated for 30 mins followed by NADPH addition and measured after 60 mins by LC-MS/MS analysis; format: ADME, Microsome; conditions: liver microsomes, read-out: Stability
measured.endpoint: remaining at 1 h, 1 µM (%)

>>> reported_measurement("CCC12CC3CC(C(=O)N[C@H]4CC[C@H](N)CC4)(C1)CC(c1ccccc1)(C3)C2 (mixture of isomers)")
71
>>> reported_measurement("C[C@H]1C[C@H](NC(=O)C23CC4CC(C)(C2)CC(c2ccccc2)(C4)C3)CCN1 (mixture of isomers)")
75
>>> reported_measurement("CC12CC3CC(C(=O)N4CCC(N)CC4)(C1)CC(c1ccccc1)(C3)C2 (racemic)")
81
>>> reported_measurement("CC12CC3CC(C(=O)N[C@H]4CC[C@H](N)CC4)(C1)CC(c1ccccc1)(C3)C2 (mixture of isomers)")
92

====

assay: Inhibition of glycoprotein in VSV pseudotyped Ebolavirus infected in African green monkey Vero cells assessed as reduction in virus entry incubated for 24 hrs by luciferase reporter gene assay; format: cell-based; details: Orthoebolavirus, Vero, 24 h
measured.endpoint: EC50 (nM)

>>> reported_measurement("O=C(CC12CC3CC(C1)CC(c1ccccc1)(C3)C2)NC1CCNCC1")
490
>>> reported_measurement("CCC12CC3CC(C(=O)NC4CCNCC4)(C1)CC(c1ccccc1)(C3)C2 (racemic)")
20
>>> reported_measurement("O=C(NC1CCNCC1)C12CC3CC(C1)CC(c1ccc(O)cc1)(C3)C2")
1700
>>> reported_measurement("CC12CC3CC(C(=O)N4CCC(N)CC4)(C1)CC(c1ccccc1)(C3)C2 (racemic)")
51
>>> reported_measurement("C[C@H]1C[C@H](NC(=O)C23CC4CC(C)(C2)CC(c2ccccc2)(C4)C3)CCN1 (mixture of isomers)")
46
>>> reported_measurement("COc1ccc(C23CC4CC(CC(C(=O)NC5CCNCC5)(C4)C2)C3)cc1")
380
>>> reported_measurement("O=C(NC1CCN(Cc2ccccc2)CC1)C12CC3CC(C1)CC(c1ccccc1)(C3)C2")
380
>>> reported_measurement("CC12CC3CC(C(=O)NC4CC5(CC(N)C5)C4)(C1)CC(c1ccccc1)(C3)C2 (racemic)")
40
>>> reported_measurement("c1ccc(C23CC4CC(CC(CNC5CCNCC5)(C4)C2)C3)cc1")
470
>>> reported_measurement("CC12CC3CC(C(=O)N[C@H]4[C@@H]5CNC[C@@H]54)(C1)CC(c1ccccc1)(C3)C2 (mixture of isomers)")
120
>>> reported_measurement("O=C(NC1CCNCC1)C1C2CC3CC1CC(c1ccccc1)(C3)C2 (stereo not given)")
180
>>> reported_measurement("CC12CC3CC(C(=O)N[C@H]4CC[C@@H](N)CC4)(C1)CC(c1ccccc1)(C3)C2 (mixture of isomers)")
110
>>> reported_measurement("O=C(NC1CCNCC1)C12CC3CC1CC(c1ccccc1)(C3)C2 (stereo not given)")
330
>>> reported_measurement("O=C(NC1CCNCC1)C12CC3CC(C1)CC(c1ccccc1)(C3)C2")
72
>>> reported_measurement("O=C(NC1CCN(Cc2ccccc2)CC1)C12CC3CC(CC(C3)C1)C2")
3900
>>> reported_measurement("O=C(N1CCNCC1)C12CC3CC(C1)CC(c1ccccc1)(C3)C2")
260
>>> reported_measurement("O=C(NC1CCNCC1)C12CC3CC(C1)CC(c1ccc(Cl)cc1)(C3)C2")
190

====

assay: Metabolic stability in human liver microsomes assessed as parent compound remaining at 1 uM pretreated for 30 mins followed by NADPH addition and measured after 60 mins by LC-MS/MS analysis; type: ADME, Microsome; conditions: liver microsomes, read-out: Stability
measured.endpoint: remaining at 1 h, 1 µM (%)

>>> reported_measurement("CCC12CC3CC(C(=O)NC4CCNCC4)(C1)CC(c1ccccc1)(C3)C2 (racemic)")
69
>>> reported_measurement("CC12CC3CC(C(=O)N[C@H]4CC[C@H](CN)CC4)(C1)CC(c1ccccc1)(C3)C2 (mixture of isomers)")
75
>>> reported_measurement("CC12CC3CC(C(=O)NC4CCNCC4)(C1)CC(c1ccccc1)(C3)C2 (racemic)")
75

====

test: Selectivity index, ratio of CC50 for African green monkey Vero E6 cells assessed as reduction in cell viability incubated for 10 days by neutral red dye based spectrophotometry analysis to EC90 for wild type Ebolavirus infected in African green monkey Vero E6 cells assessed as reduction in viral replication by virus yield reduction assay; type: toxicity, Vero C1008; settings: read-out: Selectivity Index
Measured selectivity ratio at 240 h by item
measured.endpoint: selectivity ratio at 240 h

>>> reported_measurement("CC12CC3CC(C(=O)N[C@H]4CC[C@H](CN)CC4)(C1)CC(c1ccccc1)(C3)C2 (stereo in doubt; 40)")
40
>>> reported_measurement("C[C@]12C[C@@H]3C[C@](C(=O)NC4CCNCC4)(C1)C[C@@](c1ccccc1)(C3)C2")
34
>>> reported_measurement("CC12CC3CC(C(=O)N[C@H]4CC[C@H](N)CC4)(C1)CC(c1ccccc1)(C3)C2 (stereo in doubt; 38)")
77

====

assay: Metabolic stability in Cynomolgus monkey liver microsomes assessed as parent compound remaining at 1 uM pretreated for 30 mins followed by NADPH addition and measured after 60 mins by LC-MS/MS analysis; type: ADME, Macaca fascicularis, Microsome; conditions: read-out: Stability
Reported remaining at 1 h, 1 µM values follow for various compounds
measured.endpoint: remaining at 1 h, 1 µM (%)

>>> reported_measurement("C[C@]12C[C@@H]3C[C@](C(=O)NC4CCNCC4)(C1)C[C@@](c1ccccc1)(C3)C2")
83
>>> reported_measurement("CCC12CC3CC(C(=O)N[C@H]4CC[C@H](N)CC4)(C1)CC(c1ccccc1)(C3)C2 (stereo in doubt; 42)")
60
>>> reported_measurement("CC12CC3CC(C(=O)N[C@H]4CC[C@H](N)CC4)(C1)CC(c1ccccc1)(C3)C2 (stereo in doubt; 38)")
89
>>> reported_measurement("CC12CC3CC(C(=O)N[C@H]4CC[C@H](CN)CC4)(C1)CC(c1ccccc1)(C3)C2 (stereo in doubt; 40)")
61

====

Each entry below lists one item and its recorded remaining at 1 h, 1 µM value.
assay: Metabolic stability in dog liver microsomes assessed as parent compound remaining at 1 uM pretreated for 30 mins followed by NADPH addition and measured after 60 mins by LC-MS/MS analysis; type: ADME, Canis lupus familiaris, Microsome; conditions: read-out: Stability
measured.endpoint: remaining at 1 h, 1 µM (%)

>>> reported_measurement("CC12CC3CC(C(=O)N[C@H]4CC[C@H](CN)CC4)(C1)CC(c1ccccc1)(C3)C2 (stereo in doubt; 40)")
85
>>> reported_measurement("CC12CC3CC(C(=O)N[C@H]4CC[C@H](N)CC4)(C1)CC(c1ccccc1)(C3)C2 (stereo in doubt; 38)")
96
>>> reported_measurement("CCC12CC3CC(C(=O)N[C@H]4CC[C@H](N)CC4)(C1)CC(c1ccccc1)(C3)C2 (stereo in doubt; 42)")
77

====

test: Metabolic stability in mouse liver microsomes assessed as parent compound remaining at 1 uM pretreated for 30 mins followed by NADPH addition and measured after 60 mins by LC-MS/MS analysis; format: ADME, Microsome; settings: read-out: Stability
measured.endpoint: remaining at 1 h, 1 µM (%)

>>> reported_measurement("C[C@]12C[C@@H]3C[C@](C(=O)NC4CCNCC4)(C1)C[C@@](c1ccccc1)(C3)C2")
86
>>> reported_measurement("CC12CC3CC(C(=O)N[C@H]4CC[C@H](N)CC4)(C1)CC(c1ccccc1)(C3)C2 (stereo in doubt; 38)")
74
>>> reported_measurement("CCC12CC3CC(C(=O)N[C@H]4CC[C@H](N)CC4)(C1)CC(c1ccccc1)(C3)C2 (stereo in doubt; 42)")
60
>>> reported_measurement("CC12CC3CC(C(=O)N[C@H]4CC[C@H](CN)CC4)(C1)CC(c1ccccc1)(C3)C2 (stereo in doubt; 40)")
27

====

Catalogue of remaining at 1 h, 1 µM values
assay: Metabolic stability in human liver microsomes assessed as parent compound remaining at 1 uM pretreated for 30 mins followed by NADPH addition and measured after 60 mins by LC-MS/MS analysis; assay type: ADME, Microsome; conditions: liver microsomes, read-out: Stability
measured.endpoint: remaining at 1 h, 1 µM

>>> reported_measurement("CC12CC3CC(C(=O)N[C@H]4CC[C@@H](N)CC4)(C1)CC(c1ccccc1)(C3)C2 (mixture of isomers)")
"87%"
>>> reported_measurement("CC12CC3CC(C(=O)N[C@@H]4CCNC[C@H]4F)(C1)CC(c1ccccc1)(C3)C2 (mixture of isomers)")
"60%"
>>> reported_measurement("CC12CC3CC(C(=O)N4CCNCC4)(C1)CC(c1ccccc1)(C3)C2 (racemic)")
"100%"
>>> reported_measurement("CC12CC3CC(C(=O)NC4CC5(CC(N)C5)C4)(C1)CC(c1ccccc1)(C3)C2 (racemic)")
"79%"

Hey, just so you know, these numbers are from ChEMBL document CHEMBL4616697.
